# experimental details: A CellTox Green Cytotoxicity Assay to monitor cytotoxicity in HEK293 cells - 0 hour (AID 1224869); note: nearly all actives have a fitted effect of over 50% in size
# settings: CellTox Green fluorescence; series mostly up to 76.8 µM
Activity calls are given as the source filed them. Calls come from the whole dose curve; as a rule, active = well fitted activation curve with a large enough effect in the repeat runs; inconclusive = weak or mixed curves; inactive = flat fitted curve, though single readings scatter.
In this exercise, the only acceptable responses are 1.0 (active), 0.0 (inactive)

Query: Can you look up the reported call for O=C(Nc1cccc(C(F)(F)F)c1)c1cc(Br)cc(Br)c1O for me?
Reply: 0.0

Query: Can you look up the reported call for O=C1C=CC(=O)N1c1ccc(Cc2ccc(N3C(=O)C=CC3=O)cc2)cc1 for me?
Reply: 0.0

Query: Can you look up the reported call for Cc1cc(O)c(Cl)c(C)c1Cl for me?
Reply: 0.0

Query: Can you look up the reported call for CCCCN(CCCC)c1ccc(C(=O)c2ccccc2C(=O)O)c(O)c1 for me?
Reply: 0.0

Query: Can you look up the reported call for OCCN(CCO)c1nc(N2CCCCC2)c2nc(N(CCO)CCO)nc(N3CCCCC3)c2n1 for me?
Reply: 1.0

Query: Can you look up the reported call for NNc1nc(-c2ccccc2)cs1 for me?
Reply: 0.0

Query: Can you look up the reported call for CN(C)c1ccc(C2(c3ccc(N(C)C)cc3)OC(=O)c3cc(N(C)C)ccc32)cc1 for me?
Reply: 0.0

Query: Can you look up the reported call for O=C(O)c1ccc(Cl)c(Cl)c1 for me?
Reply: 0.0

Query: Can you look up the reported call for CC(=O)OCC(C)OC(C)=O (stereo unspecified) for me?
Reply: 0.0

Query: Can you look up the reported call for O=C(Oc1ccccc1)c1ccccc1C(=O)Oc1ccccc1 for me?
Reply: 0.0

Query: Can you look up the reported call for Cc1cc(C2CCCCC2)n(O)c(=O)c1 for me?
Reply: 0.0

Query: Can you look up the reported call for O=C(Nc1cccc(Cl)c1)OCC#CCCl for me?
Reply: 0.0

Query: Can you look up the reported call for CCCCC(CC)COP(=O)(O)OCC(CC)CCCC (stereo unspecified) for me?
Reply: 0.0

Query: Can you look up the reported call for CC(C)c1ccc2c(c1)CC[C@H]1[C@](C)(CN)CCC[C@]21C for me?
Reply: 0.0

Query: Can you look up the reported call for Cc1ccc(O)c(C(C)(C)C)c1 for me?
Reply: 0.0

Query: Can you look up the reported call for O=C(NO)C1(NS(=O)(=O)c2ccc(Oc3ccc(F)cc3)cc2)CCOCC1 for me?
Reply: 0.0

Query: Can you look up the reported call for C[C@@H](NCCCc1cccc(C(F)(F)F)c1)c1cccc2ccccc12 for me?
Reply: 0.0

Query: Can you look up the reported call for CN(C/C=C/C#CC(C)(C)C)Cc1cccc2ccccc12 for me?
Reply: 0.0

Query: Can you look up the reported call for O=c1[nH]cnc2nc[nH]c12 for me?
Reply: 0.0

Query: Can you look up the reported call for S=c1[nH]c2ccccc2s1 for me?
Reply: 0.0

Query: Can you look up the reported call for CCCCCCCCCOC(=O)c1ccc(O)cc1 for me?
Reply: 0.0

Query: Can you look up the reported call for CCCCCOc1ccccc1/C(=C\SC)n1ccnc1 for me?
Reply: 0.0

Query: Can you look up the reported call for Cc1onc(-c2c(Cl)cccc2Cl)c1C(=O)N[C@@H]1C(=O)N2[C@@H]1SC(C)(C)[C@@H]2C(=O)O for me?
Reply: 0.0

Query: Can you look up the reported call for COC(=O)c1cc(Cl)ccc1OC for me?
Reply: 0.0

Query: Can you look up the reported call for Oc1cc2ccccc2c2ccccc12 for me?
Reply: 0.0

Query: Can you look up the reported call for O=C(OCC(COC(=O)c1ccccc1)(COC(=O)c1ccccc1)COC(=O)c1ccccc1)c1ccccc1 for me?
Reply: 0.0

Sourced from PubChem BioAssay (Tox21)
